Source listed as FireProtDB (doi:10.1021/bi00212a026).

B1: Ribonuclease, P00648 (parent)
chain: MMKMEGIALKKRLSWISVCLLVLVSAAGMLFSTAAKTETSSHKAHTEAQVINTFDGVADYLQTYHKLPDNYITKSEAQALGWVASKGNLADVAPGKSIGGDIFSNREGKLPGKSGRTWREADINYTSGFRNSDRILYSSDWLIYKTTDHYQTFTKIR

- Variants of: B1
- conditionDescription: Bacillus amyloliquefaciens; pH 6.3; 25 °C; Urea; Fluorescence; MES 50 mM; NaCl 0.15 M; reversible: yes; structure 1BNI; whole UniProt chain shown
Measured denaturant m value, listed per entry.
Answer in kcal/mol/M, number only, no unit symbol.

Here is how some variants turned out for denaturant m value.
| mutationKey | unitTag | denaturant m value |
| --- | --- | --- |
| I51A Y125F | kcal/mol/M | 1.95 |
| I51A I98V | kcal/mol/M | 2.11 |
| I123T | kcal/mol/M | 1.87 |

Next:
## Input Give its denaturant m value value. Item: I51A I123V
## Output 1.92
